target: DNA dC->dU-editing enzyme APOBEC-3G (Homo sapiens); assay type: functional;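 note: Dose-response counterscreen measuring inhibition of APOBEC3G DNA deaminase activity, run while confirming APOBEC3A inhibitors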
Sequence (Q9HC16 whole entry): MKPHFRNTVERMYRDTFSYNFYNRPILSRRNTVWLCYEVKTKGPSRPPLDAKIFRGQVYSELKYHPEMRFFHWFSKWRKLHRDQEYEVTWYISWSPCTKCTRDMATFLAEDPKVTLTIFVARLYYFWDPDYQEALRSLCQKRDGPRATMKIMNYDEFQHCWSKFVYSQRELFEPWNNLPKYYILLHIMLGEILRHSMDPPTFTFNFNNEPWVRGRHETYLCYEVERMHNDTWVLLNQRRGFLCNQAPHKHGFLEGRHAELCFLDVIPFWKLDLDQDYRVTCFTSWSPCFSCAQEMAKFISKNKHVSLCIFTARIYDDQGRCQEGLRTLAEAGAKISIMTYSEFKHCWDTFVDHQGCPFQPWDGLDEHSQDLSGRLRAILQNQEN
Activity calls are given as the source filed them.
reported.metric: IC50

# count of solved cases: 3
smiles.representation: CCC(=O)c1ccc(OCC(=O)Nc2cc(S(=O)(=O)N3CCCCC3)ccc2N2CCN(CC)CC2)cc1
value.observed: 5.31 µM (active)

smiles.representation: COc1ccc(-n2c(C)cc(C(=O)C[N+]34CCN(CC3)CC4)c2C)cc1
value.observed: 2.73 µM (active)

smiles.representation: CSC1=NCCN1CCOc1ccccc1
value.observed: 8.19 µM (active)

Input: Record request: IC50 value, item `Cc1ccc(C)c(SCC(=O)OCC(=O)c2ccco2)c1`
Output: 46.3 µM (active)

Input: Tell me the measured IC50 of `Cc1ccc(N(Cc2cc3cccc(C)c3nc2O)S(=O)(=O)c2ccccc2)c(C)c1` , please.
Output: 5.56 µM (active)

Input: What does the data say about its IC50? Entry: `Cn1c2ccccc2c2cc(/C=N/NC(=O)c3cc(O)cc(O)c3)ccc21`
Output: 41.6 µM (active)

Every entry's value here was drawn from ChEMBL document CHEMBL1201862.
